Numbers sourced from patent US20080206268A1.

assayedSystem: HLA-B60 on HLA typed EBV-LCLs (human)
measurementDescription: cell-based competition assay, flow cytometry
readoutKind: IC50

1) KECVLHDDL (modifications not checked) [nonameric HA-1^H peptide …]; 1.6 to 5.3 µM
